This collection of values is drawn from paper PMC7835927.

- target.system: human α7 nAChRs (Homo sapiens, UniProt P36544)
- Construct: expressed in transfected cells; host or cells: Xenopus laevis oocytes injected with in vitro transcribed capped cRNA (pSP64T derivatives)
- Sequence (P36544 23-502): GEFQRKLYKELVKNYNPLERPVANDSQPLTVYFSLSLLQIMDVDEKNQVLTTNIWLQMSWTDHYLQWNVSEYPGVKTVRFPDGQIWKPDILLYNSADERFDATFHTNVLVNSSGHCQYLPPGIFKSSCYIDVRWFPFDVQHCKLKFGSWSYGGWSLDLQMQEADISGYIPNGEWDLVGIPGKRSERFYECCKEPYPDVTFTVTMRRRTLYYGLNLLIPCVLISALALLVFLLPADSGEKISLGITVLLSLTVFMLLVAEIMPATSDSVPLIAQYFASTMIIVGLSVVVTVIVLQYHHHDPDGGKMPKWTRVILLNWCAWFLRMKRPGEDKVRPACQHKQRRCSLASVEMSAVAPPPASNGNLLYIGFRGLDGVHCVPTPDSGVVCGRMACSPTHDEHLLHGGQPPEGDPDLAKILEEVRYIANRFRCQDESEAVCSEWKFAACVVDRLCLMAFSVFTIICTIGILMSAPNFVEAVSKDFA
- assay.summary: Two-electrode voltage-clamp in Xenopus oocytes expressing human α7 nAChRs: potentiation of ACh-evoked currents
- Format: cell-based
- cond: read-out: EC50 of potentiating effect
pEC50: −log10 of the molar value.
measurement.name: pEC50

| chem.smiles | measurement.name | endpoint.result |
| --- | --- | --- |
| COc1ccc(CCC(=O)/C=C(\O)CCc2ccc(OC)cc2OC)c(OC)c1 | pEC50 | 6.36 |
| O=C(/C=C/c1ccc(O)cc1)CC(=O)/C=C/c1ccc(O)cc1 | pEC50 | 5.16 |
| COc1cc(/C=C/C(=O)CC(=O)/C=C/c2ccc(O)c(OC)c2)ccc1O | pEC50 | 4.07 |

---

- target.system: human α7 nAChRs (Homo sapiens, UniProt P36544)
- Construct: expressed in transfected cells; host or cells: Xenopus laevis oocytes injected with in vitro transcribed capped cRNA (pSP64T derivatives)
- assay.summary: Two-electrode voltage-clamp in Xenopus oocytes expressing human α7 nAChRs: potentiation of ACh-evoked currents
- Type: cell-based
- cond: read-out: % ± s.e. Current vs. ACh [200 µM]

| molecule | unit.of.measurement | activity at 10 µM |
| --- | --- | --- |
| O=c1c(O)c(-c2ccc(O)c(O)c2)oc2c(O)c(O)cc(O)c12 | % | 115 |
| COc1cc(/C=C/C(=O)CC(=O)/C=C/c2ccc(O)c(OC)c2)ccc1O | % | 148 |
| O=c1c(O)c(-c2ccc(O)cc2)oc2cc(O)cc(O)c12 | % | 155 |
| O=c1c(O)c(-c2cc(O)c(O)c(O)c2)oc2cc(O)cc(O)c12 | % | 97 |
| O=c1cc(-c2ccc(O)cc2)oc2cc(O)cc(O)c12 | % | 108 |
| O=C(/C=C/c1ccc(O)cc1)CC(=O)/C=C/c1ccc(O)cc1 | % | 469 |
| O=C1C[C@@H](c2ccc(O)cc2)Oc2cc(O)cc(O)c21 | % | 105 |
| O=C(CCc1ccc(O)cc1)c1c(O)cc(O)cc1O | % | 231 |
| O=C1C[C@@H](c2ccc(O)c(O)c2)Oc2cc(O)cc(O)c21 | % | 108 |
| O=c1c(-c2ccc(O)cc2)coc2cc(O)cc(O)c12 | % | 154 |
| O=c1cc(-c2ccc(O)c(O)c2)oc2cc(O)cc(O)c12 | % | 125 |
| O=C1c2c(O)cc(O)cc2OC(c2ccc(O)c(O)c2)C1O (stereo not shown) | % | 107 |
| COc1cc(/C=C/C(O)=C/C(=O)/C=C/c2ccc(O)cc2)ccc1O | % | 408 |
